Biological target: Metabotropic glutamate receptor 4 (Rattus norvegicus) (UniProt P31423)
Sequence (P31423 whole entry): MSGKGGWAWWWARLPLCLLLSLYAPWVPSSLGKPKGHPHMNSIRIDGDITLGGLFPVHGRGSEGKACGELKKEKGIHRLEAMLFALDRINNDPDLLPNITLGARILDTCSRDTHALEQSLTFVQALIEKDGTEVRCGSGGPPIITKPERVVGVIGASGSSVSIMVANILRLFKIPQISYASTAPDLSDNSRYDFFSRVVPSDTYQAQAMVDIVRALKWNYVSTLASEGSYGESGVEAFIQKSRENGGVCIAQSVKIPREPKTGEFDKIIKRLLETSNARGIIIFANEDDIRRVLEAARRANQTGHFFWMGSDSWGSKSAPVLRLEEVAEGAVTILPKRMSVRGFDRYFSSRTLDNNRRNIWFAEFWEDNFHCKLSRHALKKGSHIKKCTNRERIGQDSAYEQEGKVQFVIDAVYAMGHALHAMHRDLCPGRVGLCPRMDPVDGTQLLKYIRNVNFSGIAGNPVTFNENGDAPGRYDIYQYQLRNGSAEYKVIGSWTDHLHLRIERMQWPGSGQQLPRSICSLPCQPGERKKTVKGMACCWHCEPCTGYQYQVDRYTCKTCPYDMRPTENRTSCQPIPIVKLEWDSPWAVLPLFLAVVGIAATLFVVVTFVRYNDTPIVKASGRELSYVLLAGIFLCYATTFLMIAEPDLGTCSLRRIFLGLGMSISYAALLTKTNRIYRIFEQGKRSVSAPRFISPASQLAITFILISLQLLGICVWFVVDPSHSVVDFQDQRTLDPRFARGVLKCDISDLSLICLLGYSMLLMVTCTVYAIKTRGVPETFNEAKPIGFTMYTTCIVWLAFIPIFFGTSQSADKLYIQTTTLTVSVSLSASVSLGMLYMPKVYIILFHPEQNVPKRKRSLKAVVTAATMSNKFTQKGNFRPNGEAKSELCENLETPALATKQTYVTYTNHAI
Assay: Displacement of [3H]ML128 from rat mGlu4 receptor expressed in CHO cells at 10 uM after 30 mins by liquid scintillation counting analysis
Format: cell-based
Below, each entry is listed alongside its reported inhibition.
Give your result in % as a bare value.

Examples with their reported inhibition follow.
| Compound | Tgt | Result units | Observed result |
| --- | --- | --- | --- |
| O=C(Nc1ccc(N2C(=O)c3cccc(I)c3C2=O)c(Cl)c1)c1ccccn1 | Metabotropic glutamate receptor 4 (Rattus norvegicus) (UniProt P31423) | % | 96 |
| O=C(Nc1cccc(OC(F)F)c1)c1ccccn1 | Metabotropic glutamate receptor 4 (Rattus norvegicus) (UniProt P31423) | % | 99.1 |
| COc1cc(NC(=O)c2ccccn2)ccc1Cl | Metabotropic glutamate receptor 4 (Rattus norvegicus) (UniProt P31423) | % | 100 |

Task item: Report inhibition under test system Metabotropic glutamate receptor 4 (Rattus norvegicus) (UniProt P31423) for O=C(Nc1ccc(N2C(=O)c3cccc(Br)c3C2=O)c(Cl)c1)c1ccccn1 .
Reply: 96.6

Task item: Report inhibition under test system Metabotropic glutamate receptor 4 (Rattus norvegicus) (UniProt P31423) for O=C(Nc1ccc(N2C(=O)c3cccc(F)c3C2=O)c(Cl)c1)c1ccccn1 .
Reply: 99.4

Task item: Report inhibition under test system Metabotropic glutamate receptor 4 (Rattus norvegicus) (UniProt P31423) for Cc1cccc2c1C(=O)N(c1ccc(NC(=O)c3ccccn3)cc1Cl)C2=O .
Reply: 99.4

Provenance of the data: ChEMBL document CHEMBL3351329
